- system.tested: T1, human ARG2 (Homo sapiens, UniProt P78540, E275H/R327K)
- T1 construct: His10 (after a GGG linker) (C); made in house; host or cells: E. coli BL21 (DE3)
- T1 sequence (P78540 23-354 E275H/R327K): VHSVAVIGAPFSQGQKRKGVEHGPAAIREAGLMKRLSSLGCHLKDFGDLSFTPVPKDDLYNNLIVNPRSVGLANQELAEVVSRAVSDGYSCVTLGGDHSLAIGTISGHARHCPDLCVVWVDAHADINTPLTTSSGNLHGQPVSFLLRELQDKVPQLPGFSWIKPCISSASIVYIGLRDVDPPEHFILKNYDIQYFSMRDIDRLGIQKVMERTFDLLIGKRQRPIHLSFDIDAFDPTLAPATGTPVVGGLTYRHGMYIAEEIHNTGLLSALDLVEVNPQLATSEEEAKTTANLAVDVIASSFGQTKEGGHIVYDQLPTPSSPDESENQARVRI
- assay.method.text: Bio-Layer Interferometry (OctetRED) binding kinetics, human ARG2
- condition.description: Fab as analyte; streptavidin capture; analyte 1.8 to 120 nM; affinity-matured antibodies
measurement.type: ka
Quick note: unit goes after the number.

Solved entries (count: 2):
C0021092: anti-ARG2 antibody, VH SEQ ID NO: 92, VL SEQ ID NO: 97 (antibody, listed as Homo sapiens, V domains shown, C0021092) VH: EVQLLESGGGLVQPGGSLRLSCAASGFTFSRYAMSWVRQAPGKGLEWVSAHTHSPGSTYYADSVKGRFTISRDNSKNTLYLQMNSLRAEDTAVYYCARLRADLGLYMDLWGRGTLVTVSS VL: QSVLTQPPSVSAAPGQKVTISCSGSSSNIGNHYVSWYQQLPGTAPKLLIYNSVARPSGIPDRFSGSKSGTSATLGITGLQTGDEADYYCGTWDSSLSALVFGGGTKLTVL; 280000 M⁻¹ s⁻¹
C0021021 Fab (antibody, V domains shown) VH: EVQLLESGGGLVQPGGSLRLSCAASGFTFSSYAMSWVRQAPGKGLEWVSSILFSPGSTYYADSVKGRFTISRDNSKNTLYLQMNSLRAEDTAVYYCARLRADLGLYMDLWGRGTLVTVSS VL: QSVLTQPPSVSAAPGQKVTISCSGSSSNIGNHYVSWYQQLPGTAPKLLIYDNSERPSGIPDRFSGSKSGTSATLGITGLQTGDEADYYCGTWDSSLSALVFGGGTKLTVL; 473000 M⁻¹ s⁻¹

// below: ka requested for another molecule
Which ka value is on record for C0021118 Fab (antibody, V domains shown) VH: EVQLLESGGGLVQPGGSLRLSCAASGFTFSSYAMSWVRQAPGKGLEWVSASLTNPGSTYYADSVKGRFTISRDNSKNTLYLQMNSLRAEDTAVYYCARLRADLGLYMDLWGRGTLVTVSS VL: QSVLTQPPSVSAAPGQKVTISCSGSSSNIGNHYVSWYQQLPGTAPKLLIYDNSERPSGIPDRFSGSKSGTSATLGITGLQTGDEADYYCATYDTNLSALVFGGGTKLTVL ?
139000 M⁻¹ s⁻¹
